Source of measurements: the supplement of paper PMC11061612

Test system: SU8686 (Pancreatic Carcinoma);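 note: after 72 h of two-drug dosing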
protocol-details: Bliss excess, mean over the matrix (fraction); higher = more synergy
Give met when the value for Bliss excess is at least -0.04. Give not met when it is less.

compound="Cn1cnc2c(F)c(Nc3ccc(Br)cc3Cl)c(C(=O)NOCCO)cc21 [Selumetinib] + CC(C)n1c(=O)n(C)c2cnc3cc(F)c(-c4ccc(OCCCN5CCCCC5)nc4)cc3c21 [AZD1390] (first compound max 10 µM, 7x7, partner max 0.3 µM)" cat=met
compound="CC1(C)CCC(CN2CCN(c3ccc(C(=O)NS(=O)(=O)c4ccc(NCC5CCOCC5)c([N+](=O)[O-])c4)c(Oc4cnc5[nH]ccc5c4)c3)CC2)=C(c2ccc(Cl)cc2)C1 [Venetoclax] + C1CN(CCC1(C(=O)N[C@@H](CCO)C2=CC=C(C=C2)Cl)N)C3=NC=NC4=C3C=CN4 [Capivasertib] (first compound max 1 µM, 7x7, partner max 3 µM)" cat=met

(Q) Is it the case that NC1(C(=O)N[C@@H](CCO)c2ccc(Cl)cc2)CCN(c2ncnc3[nH]ccc23)CC1 [Capivasertib] + COc1nnc2ccc(N3CCC(c4ccc(OCCN5CCN(C)C(=O)[C@H]5C)cc4)CC3)nn12 [AZD5153] (first compound max 10 µM, 7x7, partner max 1 µM) has Bliss excess reaching or exceeding -0.04?
(A) met

(Q) State whether the measured Bliss excess reaches -0.04, counting equality as reaching it, for CC1(C)CCC(CN2CCN(c3ccc(C(=O)NS(=O)(=O)c4ccc(NCC5CCOCC5)c([N+](=O)[O-])c4)c(Oc4cnc5[nH]ccc5c4)c3)CC2)=C(c2ccc(Cl)cc2)C1 [Venetoclax] + COc1cc(Nc2ncc3c(n2)-c2ccc(Cl)cc2C(c2c(F)cccc2OC)=NC3)ccc1C(=O)O [Alisertib] (first compound max 1 µM, 7x7, partner max 10 µM)
(A) not met

(Q) Is the recorded value of Bliss excess equal to or greater than -0.04 for this compound? COc1cccc(OCCCN)c1-c1cc(Nc2cnc(C#N)cn2)n[nH]1 [Prexasertib] + O=C(c1cc(Cc2n[nH]c(=O)c3ccccc23)ccc1F)N1CCN(C(=O)C2CC2)CC1 [Olaparib] (first compound max 1 µM, 7x7, partner max 10 µM)
(A) not met

(Q) Is reported Bliss excess greater than or equal to -0.04 here: Cc1c2c(nn1C)CSCc1cc(n(C)n1)CSc1cc(c3ccccc3c1)OCCCc1c(C(=O)O)n(C)c3c-2c(Cl)ccc13 [AZD5991] + C1CN(CCC1(C(=O)N[C@@H](CCO)C2=CC=C(C=C2)Cl)N)C3=NC=NC4=C3C=CN4 [Capivasertib] (first compound max 1 µM, 7x7, partner max 3 µM)
(A) met

(Q) Does Bliss excess meet or surpass -0.04 for NC1(C(=O)N[C@@H](CCO)c2ccc(Cl)cc2)CCN(c2ncnc3[nH]ccc23)CC1 [Capivasertib] + Cn1cnc2c(F)c(Nc3ccc(Br)cc3Cl)c(C(=O)NOCCO)cc21 [Selumetinib] (first compound max 10 µM, 7x7, partner max 10 µM) ?
(A) met

(Q) Does Bliss excess meet or surpass -0.04 for CN(CCO)CC[C@H](CSc1ccccc1)Nc1ccc(S(=O)(=O)NC(=O)c2ccc(N3CCC([C@@H](O)c4ccccc4-c4ccc(Cl)cc4)CC3)cc2)cc1S(=O)(=O)C(F)(F)F [AZD4320] + C[C@@H](Nc1cc(F)cc(F)c1)c1cc(C(=O)N(C)C)cc2c(=O)cc(N3CCOCC3)oc12 [AZD8186] (first compound max 1 µM, 7x7, partner max 3 µM) ?
(A) met

(Q) Decide: is the reported value of Bliss excess for COc1nnc2ccc(N3CCC(c4ccc(OCCN5CCN(C)C(=O)[C@H]5C)cc4)CC3)nn12 [AZD5153] + CC1(C)CCC(CN2CCN(c3ccc(C(=O)NS(=O)(=O)c4ccc(NCC5CCOCC5)c([N+](=O)[O-])c4)c(Oc4cnc5[nH]ccc5c4)c3)CC2)=C(c2ccc(Cl)cc2)C1 [Venetoclax] (first compound max 1 µM, 7x7, partner max 1 µM) equal to or greater than -0.04?
(A) not met

(Q) Exam item: decide whether the reported Bliss excess for C[C@@H](c1ccc2nccn2c1)n1nnc2ncc(-c3cnn(C)c3)nc21 [Savolitinib] + CC1(C)CCC(CN2CCN(c3ccc(C(=O)NS(=O)(=O)c4ccc(NCC5CCOCC5)c([N+](=O)[O-])c4)c(Oc4cnc5[nH]ccc5c4)c3)CC2)=C(c2ccc(Cl)cc2)C1 [Venetoclax] (first compound max 1 µM, 7x7, partner max 1 µM) is at least -0.04.
(A) not met

(Q) Has CCN(CCO)CCCOc1ccc2c(Nc3cc(CC(=O)Nc4cccc(F)c4)[nH]n3)ncnc2c1 [AZD2811] + O=C(c1cc(Cc2n[nH]c(=O)c3ccccc23)ccc1F)N1CCN(C(=O)C2CC2)CC1 [Olaparib] (first compound max 1 µM, 7x7, partner max 10 µM) a recorded Bliss excess greater than or equal to -0.04?
(A) met

(Q) # check: Bliss excess of Cc1c2c(nn1C)CSCc1cc(n(C)n1)CSc1cc(c3ccccc3c1)OCCCc1c(C(=O)O)n(C)c3c-2c(Cl)ccc13 [AZD5991] + C=CCn1c(=O)c2cnc(Nc3ccc(N4CCN(C)CC4)cc3)nc2n1-c1cccc(C(C)(C)O)n1 [AZD1775] (first compound max 1 µM, partner max 1 µM) is greater than or equal to -0.04
(A) met
